Parameter: EC50. Scope: all listed entries.
target: T1, human CD38 (human, UniProt P28907 43-300, limits assumed); experiment: ELISA
T1 construct: also called hCD38; huCD38
Recorded endpoint: EC50 (pM)

Binder	Reading unit	Measured result
AntiCD38_hyb_6284 (antibody, V domains shown) VH: QVQLLQSGAELVRPGVSVKISCTGSGYSFTNYAVHWVKQSHVKSLEWIGVISPYYGDTTYNQKFTGKATMTVDKSSSTAYMELARLTSEDSAIYFCARRFEGFYYSMDYWGQGTSVTVSS VL: DVVMIQTPLSLPVSLGDQASISCRPSQSLVHSNGNTYLNWYLQRPGQSPKLLIYKVSKRFSGVPDRFSGSGSGTDFTLKISRVEAEDLGVYLCSQSTHVPLTFGSGTQLEIK	pM	110
AntiCD38_hhy_1195 (antibody, V domains shown) VH: QVQLVESGGGVVQPGRSLRLSCAASGFTFSSYGMYWVRQAPGKGLEWVAVIWYDGSNKYYADSVKGRFTISRDNSKNTLYLQMNSLRAEDTAVYHCARDPGLRYFDGGMDVWGQGTTVTVSS VL: DIQLTQSPSFLSASVGDRVTITCRASQGISSYLAWYQQKPGKAPKLLIFAASTLHSGVPSRFSGSGSGTEFTLTISSLQPEDFATYYCQQLNSFPYTFGQGTKLEIK	pM	1400
AntiCD38_hyb_5739 (antibody, V domains shown) VH: QVQLQQSGPELVRPGTSVKVSCKASGYAFTTYLVEWIKQRPGQGLEWIGVINPGSGSTNYNEKFKGKATLTVDRSSTTAYMHLSGLTSDDSAVYFCARYAYGYWGQGTTLTVSS VL: DIVMTQSQKFMSASVGDRVSITCKASQNVGTAVAWYQQQPGHSPKQLIYSASNRYTGVPDRFTGSGAGTDFTLTISNIQSEDLADYFCQQYSTYPFTFGSGTKLEIK	pM	120
AntiCD38_hhy_992 (antibody, V domains shown) VH: QVQLVQSGAEVKKPGASVKVSCKVSGYTLTEFSIHWVRQAPGQGLEWMGGFDPEDGETIYAQKFQGRVIMTEDTSTDTAYMEMNSLRSEDTAIYYCTTGRFFDWFWGQGTLVTVSS VL: EIILTQSPAILSLSPGERATLSCRASQSVISRFLSWYQVKPGLAPRLLIYGASTRATGIPVRFSGSGSGTDFSLTISSLQPEDCAVYYCQQDSNLPITFGQGTRLEIK	pM	90
